As shown below, each of these variants has a reported protein stability index value.
B1: FBXO34 (parent)
chain: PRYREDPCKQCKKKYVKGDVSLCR

# Variants of: B1
# experiment-summary: protein stability index of a GFP-peptide fusion (GPS, HEK-293T) (PSI 1-6); higher = more stable;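 further: lentivirally expressed fusions sorted by FACS into six bins by GFP to DsRed ratio, PSI derived from sequencing read proportions per bin multiplied by bin number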
# experimental-setup: c terminus: a fixed tail appended
Would you mind answering with just the numeric figure?

Looking up D19S , I see its protein stability index listed as 2.38

Looking up R2A , I see its protein stability index listed as 2.96

Looking up K9A , I see its protein stability index listed as 2.53

Looking up D19E , I see its protein stability index listed as 3.31

Looking up D6G , I see its protein stability index listed as 2.48

Looking up K17Y , I see its protein stability index listed as 2.29

Looking up K14D , I see its protein stability index listed as 2.24

Looking up C8Q , I see its protein stability index listed as 3.87

Looking up R4I , I see its protein stability index listed as 2.67

Looking up P1T , I see its protein stability index listed as 2.75

Looking up K17W , I see its protein stability index listed as 2.72

Looking up V16T , I see its protein stability index listed as 2.74

Looking up K9C , I see its protein stability index listed as 2.35

Looking up P1K , I see its protein stability index listed as 3.65

Looking up V20G , I see its protein stability index listed as 2.18

Looking up K13F , I see its protein stability index listed as 2.55

Looking up D19Y , I see its protein stability index listed as 2.56

Looking up P1H , I see its protein stability index listed as 2.85

Looking up S21W , I see its protein stability index listed as 2.16

Looking up K13H , I see its protein stability index listed as 2.35

Looking up P7G , I see its protein stability index listed as 2.7

Looking up K13S , I see its protein stability index listed as 2.63

Looking up C8M , I see its protein stability index listed as 2.95
